outcomeMeasure: melting point (°C)

1. O=[N+]([O-])/C(Br)=C/c1cccc(/C=C(\Br)[N+](=O)[O-])c1 = 153

1: CC(C)CCOC(=O)c1cc([N+](=O)[O-])cc([N+](=O)[O-])c1
2: NC(CCC(=O)NC(CS)C(=O)NCC(=O)O)C(=O)O (stereo unspecified)
// compare measured melting point between 1 and 2 ; output the lower one Respond using the label that marks the chosen record.
1

* * *

outcomeMeasure: melting point (°C)

1) COc1cc2c(c(Oc3c(OC)cc4c(c3O)C(CC(C)C)N(C)CC4)c1O)C(CC(C)C)N(C)CC2 (configuration not stated) = 164
2) O=C(O)c1ccc(Br)o1 = 190
3) Fc1cc(CBr)ccc1Cl = 32
4) CC(=O)N1c2cc3[nH]c(C)cc3cc2CC1C (configuration not stated) = 275
5) O=[N+]([O-])c1ccccc1OC1OC(CO)C(O)C(O)C1O (configuration not stated) = 195

I: N#CC(=Cc1ccccc1Cl)c1nc2ccccc2s1
II: NC(=O)C(=O)O
III: CCCCCC(=O)OCCCC
Would you mind ranking these compounds by ascending melting point? Show the ranking through the labels, in the order asked for.
III, I, II
(III: -64.3 °C, I: 139 °C, II: 210 °C)

* * *

outcomeMeasure: melting point (°C)

1. CC(=O)c1cc(O)ccc1O = 206
2. Cc1cc([N+](=O)[O-])ccc1N=C=O = 83
3. O=C(/C=C/c1ccc(OCCCCl)cc1)c1ccccc1 = 74
4. C=CCn1c(N)cc(=O)n(CC)c1=O = 143
5. BrCc1ccc(I)cc1 = 80

1: N#C/C(=N/Nc1cccc(C(F)(F)F)c1)c1nc2ccccc2c(=O)[nH]1
2: NCC1CCCC(CN)C1 (centres undefined)
3: O=C(O)Cc1ccc(F)c(F)c1
4: NS(=O)(=O)c1cc(F)ccc1F
Thanks in advance: please rank these 4 entries by melting point, highest to lowest. Show the ranking through the labels, in the order asked for.
1, 4, 3, 2

* * *

outcomeMeasure: melting point (°C)

Recorded melting point, per entry:
1) CC1=NNC(=O)C1=NNc1ccc(Cl)cc1 = 215
2) c1ccc(C2=NN(c3ccccc3)C2)cc1 = 138
3) CC12C=C(C(=O)Oc3ccccc3)C(CC1)C2(C)C (stereo unspecified) = 64

a: N#Cc1cccc(Cl)n1
b: Cc1cc(C)cc(CC#N)c1
Of a and b , which one carries the higher reported melting point? Respond using the label that marks the chosen record.
a
(a: 87 °C, b: 44 °C)

a: COc1ccc(C=CC(=O)C=Cc2ccc(OC)cc2)cc1
b: Clc1cccc(I)c1Cl
// compare measured melting point between a and b ; output the lower one Respond using the label that marks the chosen record.
b

I: CCCC=C1C(=O)C2(C)CCC1C2(C)C (stereo unspecified)
II: Nc1ccc2ccccc2c1S(=O)(=O)O
III: FC(F)(F)C(I)(C(F)(F)F)C(F)(F)F
IV: Nc1c(Cl)cc(C(F)(F)F)cc1Cl
V: CCOCCOCC
Thanks in advance: please rank these 5 entries by melting point, highest to lowest. Show the ranking through the labels, in the order asked for.
II, I, III, IV, V
(II: 180 °C, I: 120 °C, III: 60 °C, IV: 36 °C, V: -74 °C)

I: CC1=CC(=O)CC(=O)O1
II: COC1OC(CNC(=O)N(CCCl)N=O)C(O)C(O)C1O (stereo unspecified)
III: Clc1nsc2ccccc12
IV: CCCCCC=CCC=CCC=CCC=CCCCC(=O)O
Would you mind ranking these compounds by ascending melting point? Show the ranking through the labels, in the order asked for.
IV, III, II, I

Every entry's value here was drawn from a melting point compilation (Tetko et al.).
